Below, each of the compounds is paired with its reported hERG current change (%, negative = inhibition) at 10uM value.
Target: human ether-à-go-go-related gene (hERG) potassium channel (human)
Assay: primary screen, population patch clamp on CHO cells stably expressing hERG; higher = less effect of the substance
About 14,000 (4.5%) of roughly 310,000 compounds showed an effect of 50% or more. The effect is printed as a negative number. Many of the other results were omitted from the sample, so strong results are more common in it than they were.
Quantity: hERG current change (%, negative = inhibition) at 10uM (%)

Compound: COc1cc(OC)c(OC)cc1CNC(=O)c1ccc(S(=O)(=O)N2CC(C)OC(C)C2)cc1 (centres unmarked)
Quantity unit: %
Recorded value: -11
//
Compound: O=C(Nc1cc(C(F)(F)F)ccc1-n1cnc2ccccc21)c1ccccc1
Quantity unit: %
Recorded value: -32
//
Compound: COc1ccc(C2NC(=O)NC(C)=C2C(=O)OCC2CCCCC2)cc1OC (centres unmarked)
Quantity unit: %
Recorded value: -2.11
//
Compound: Cc1ccc2oc(=O)n(CC(=O)O)c2c1
Quantity unit: %
Recorded value: 23.8
//
Compound: O=C1CC(c2ccccc2)SC(N(c2ccccc2)c2ccccc2)=N1 (centres unmarked)
Quantity unit: %
Recorded value: -0.167

====

Molecular target: human ether-à-go-go-related gene (hERG) potassium channel (human, UniProt Q12809)
Sequence (Q12809 whole entry, looked up): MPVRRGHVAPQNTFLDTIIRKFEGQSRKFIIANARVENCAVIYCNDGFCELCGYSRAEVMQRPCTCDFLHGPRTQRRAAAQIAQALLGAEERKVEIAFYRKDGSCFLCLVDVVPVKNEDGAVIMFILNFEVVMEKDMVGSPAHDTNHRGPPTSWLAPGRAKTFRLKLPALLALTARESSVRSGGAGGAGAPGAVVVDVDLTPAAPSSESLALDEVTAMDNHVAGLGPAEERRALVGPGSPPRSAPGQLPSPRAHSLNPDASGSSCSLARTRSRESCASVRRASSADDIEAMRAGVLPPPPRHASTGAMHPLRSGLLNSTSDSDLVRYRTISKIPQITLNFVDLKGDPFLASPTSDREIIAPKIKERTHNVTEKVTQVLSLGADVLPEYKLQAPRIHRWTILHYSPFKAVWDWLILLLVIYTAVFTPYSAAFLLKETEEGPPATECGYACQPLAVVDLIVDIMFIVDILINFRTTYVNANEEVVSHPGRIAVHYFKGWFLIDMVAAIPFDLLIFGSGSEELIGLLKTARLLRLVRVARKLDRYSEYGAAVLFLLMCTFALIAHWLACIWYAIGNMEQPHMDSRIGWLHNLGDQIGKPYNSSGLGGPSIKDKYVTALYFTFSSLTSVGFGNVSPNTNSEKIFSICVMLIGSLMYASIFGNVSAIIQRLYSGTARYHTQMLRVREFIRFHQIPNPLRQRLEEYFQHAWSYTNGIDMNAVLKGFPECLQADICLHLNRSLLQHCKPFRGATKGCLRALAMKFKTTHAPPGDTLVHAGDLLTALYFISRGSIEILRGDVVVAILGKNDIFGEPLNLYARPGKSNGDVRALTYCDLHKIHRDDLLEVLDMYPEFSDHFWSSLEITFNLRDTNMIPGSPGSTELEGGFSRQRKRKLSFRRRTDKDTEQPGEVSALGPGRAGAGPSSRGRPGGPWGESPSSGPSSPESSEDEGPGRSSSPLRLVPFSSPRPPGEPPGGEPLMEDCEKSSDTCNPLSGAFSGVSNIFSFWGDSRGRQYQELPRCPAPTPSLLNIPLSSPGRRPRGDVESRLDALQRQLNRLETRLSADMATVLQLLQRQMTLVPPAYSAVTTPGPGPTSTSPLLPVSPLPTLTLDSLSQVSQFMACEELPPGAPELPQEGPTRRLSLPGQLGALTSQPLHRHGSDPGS
Assay: primary screen, population patch clamp on CHO cells stably expressing hERG; higher = less effect of the substance
Screen size: about 310,000 compounds; about 14,000 (4.5%) showed an effect of 50% or more. The effect is printed as a negative number. Only a selection was taken, and strong results are over-represented in it overall.
Each entry below lists one item and its recorded hERG current change (%, negative = inhibition) at 10uM value.
Quantity: hERG current change (%, negative = inhibition) at 10uM (%)

Structure smiles string: O=C(O)c1cccc(Nc2ncnc3ccc(Br)cc23)c1
Quantity unit: %
Recorded value: -1.55
//
Structure smiles string: Cc1ccc(-n2c(O)c(/C=N/NC(=O)c3ccncc3)c(=O)[nH]c2=O)cc1C
Quantity unit: %
Recorded value: 9.71
//
Structure smiles string: CCOc1ccc(-n2ccnc2SCC(=O)Nc2nnc(CC)s2)cc1
Quantity unit: %
Recorded value: -11.9
//
Structure smiles string: CCOc1ccc(CN(C)CC(=O)NCc2ccccc2Cl)cc1
Quantity unit: %
Recorded value: -89.1
//
Structure smiles string: O=C(/C=C/c1ccccc1Cl)NCCCn1ccnc1
Quantity unit: %
Recorded value: -17

====

# hERG current change (%, negative = inhibition) at 10uM annotations
Molecular target: human ether-à-go-go-related gene (hERG) potassium channel (human, UniProt Q12809)
Assay: primary screen, population patch clamp on CHO cells stably expressing hERG; higher = less effect of the substance
Among all 310,000 compounds or so, about 14,000 (4.5%) showed an effect of 50% or more. Effects have a minus sign here. The sample holds strong results, similar compounds and a random draw of the others, so the mix is not that of the screen.
Quantity: hERG current change (%, negative = inhibition) at 10uM

Compound: Nc1nc(N2CCN(Cc3ccccc3)CC2)n[nH]1
System tested: human ether-à-go-go-related gene (hERG) potassium channel (human, UniProt Q12809)
Recorded value: 24.7%
--
Compound: Nc1nc(NCc2ccco2)nc(N2CCN(Cc3ccccc3)CC2)c1[N+](=O)[O-]
System tested: human ether-à-go-go-related gene (hERG) potassium channel (human, UniProt Q12809)
Recorded value: -41.9%
--
Compound: Cl.c1ccc(CNc2nc(N3CCN(Cc4ccccc4)CC3)nc3ccccc23)cc1
System tested: human ether-à-go-go-related gene (hERG) potassium channel (human, UniProt Q12809)
Recorded value: -65.9%
--
Compound: COc1ccc(NC(=O)/C=C/c2ccc(OC(F)F)cc2)cn1
System tested: human ether-à-go-go-related gene (hERG) potassium channel (human, UniProt Q12809)
Recorded value: -24.7%
--
Compound: O=C(Nc1ccc2c(c1)OCCO2)c1ccc(Br)cc1
System tested: human ether-à-go-go-related gene (hERG) potassium channel (human, UniProt Q12809)
Recorded value: -3.81%
--
Compound: Cc1csc2nc(COC(=O)c3cccc(N(C)C)c3)cc(=O)n12
System tested: human ether-à-go-go-related gene (hERG) potassium channel (human, UniProt Q12809)
Recorded value: -32.5%
--
Compound: CN(C)CCn1cnc2c(c1=N)C(c1ccccc1)c1ccc3ccccc3c1O2 (stereo not drawn)
System tested: human ether-à-go-go-related gene (hERG) potassium channel (human, UniProt Q12809)
Recorded value: -79.2%
--
Compound: COc1ccc(C(=O)OCc2cc(=O)n3c(C)csc3n2)cc1F
System tested: human ether-à-go-go-related gene (hERG) potassium channel (human, UniProt Q12809)
Recorded value: -2.77%
--
Compound: Cc1ccccc1-n1ncc2c1CC(C)(C)CC2NC(=O)c1cn[nH]c1C (stereo not drawn)
System tested: human ether-à-go-go-related gene (hERG) potassium channel (human, UniProt Q12809)
Recorded value: -6.22%
--
Compound: c1ccc(CN2CCN(c3nc4ccccc4s3)CC2)cc1
System tested: human ether-à-go-go-related gene (hERG) potassium channel (human, UniProt Q12809)
Recorded value: 11.8%
--
Compound: Nc1cc(C(=O)N2CCCC2)cc(C(=O)N2CCCC2)c1
System tested: human ether-à-go-go-related gene (hERG) potassium channel (human, UniProt Q12809)
Recorded value: 11.9%
--
Compound: CN(C(=O)c1nn(C)c2c1CSc1ccccc1-2)c1ccccc1Cl
System tested: human ether-à-go-go-related gene (hERG) potassium channel (human, UniProt Q12809)
Recorded value: 3.14%
--
Compound: Cl.c1ccc(CN2CCN(c3nc(NCc4ccco4)c4ccccc4n3)CC2)cc1
System tested: human ether-à-go-go-related gene (hERG) potassium channel (human, UniProt Q12809)
Recorded value: -68.3%
--
Compound: Cc1onc(-c2ccccc2Cl)c1C(=O)N1CCC(C)CC1
System tested: human ether-à-go-go-related gene (hERG) potassium channel (human, UniProt Q12809)
Recorded value: 4%
--
Compound: Brc1cc2c(cc1Br)OCCOCCOCCOCCO2
System tested: human ether-à-go-go-related gene (hERG) potassium channel (human, UniProt Q12809)
Recorded value: -76.5%
--
Compound: CCC1c2ccc(C)n2CCN1C(=O)Nc1ccccc1C(=O)OC (stereo not drawn)
System tested: human ether-à-go-go-related gene (hERG) potassium channel (human, UniProt Q12809)
Recorded value: 6.11%
--
Compound: CC1CCc2cc(F)ccc2N1C(=O)c1ccncc1 (stereo not drawn)
System tested: human ether-à-go-go-related gene (hERG) potassium channel (human, UniProt Q12809)
Recorded value: 7.7%
--
Compound: Cc1cc(C)n(C(=O)CNC(=O)C(c2ccccc2)c2ccccc2)n1
System tested: human ether-à-go-go-related gene (hERG) potassium channel (human, UniProt Q12809)
Recorded value: -3%
--
Compound: COc1cc(C)c(CNc2ccc(OC)c(OC)c2)cc1C
System tested: human ether-à-go-go-related gene (hERG) potassium channel (human, UniProt Q12809)
Recorded value: 7.7%
--
Compound: Cn1c(Cl)nc2c1c(=O)n(Cc1cccc(Br)c1)c(=O)n2C
System tested: human ether-à-go-go-related gene (hERG) potassium channel (human, UniProt Q12809)
Recorded value: -35.3%
--
Compound: C=Cc1ccc2c(c1)OCCOCCOCCOCCOCCO2
System tested: human ether-à-go-go-related gene (hERG) potassium channel (human, UniProt Q12809)
Recorded value: -71.2%
--
Compound: S=c1[nH]nc(Cc2cccs2)n1-c1cccc2ccccc12
System tested: human ether-à-go-go-related gene (hERG) potassium channel (human, UniProt Q12809)
Recorded value: -10.4%
--
Compound: Brc1ccc2c(c1)OCCOCCOc1cc(Br)ccc1OCCOCCOCCO2
System tested: human ether-à-go-go-related gene (hERG) potassium channel (human, UniProt Q12809)
Recorded value: -4.86%
--
Compound: COc1ccc(N2CCN(C(=O)COC(=O)CCOc3cc(C)ccc3C)CC2)cc1
System tested: human ether-à-go-go-related gene (hERG) potassium channel (human, UniProt Q12809)
Recorded value: 0.516%
--
Compound: Cc1cc(C)cc(NC(=O)C2CCN(S(=O)(=O)c3ccc4c(c3)NC(=O)C(C)S4)CC2)c1 (stereo not drawn)
System tested: human ether-à-go-go-related gene (hERG) potassium channel (human, UniProt Q12809)
Recorded value: 8.79%
--
Compound: O=C(COc1c(Br)cc(Br)cc1Br)N/N=C/c1ccco1
System tested: human ether-à-go-go-related gene (hERG) potassium channel (human, UniProt Q12809)
Recorded value: 14.2%
--
Compound: CC1Cc2ccccc2N1C(=O)CSc1nnc2c(n1)[nH]c1ccc(F)cc12 (stereo not drawn)
System tested: human ether-à-go-go-related gene (hERG) potassium channel (human, UniProt Q12809)
Recorded value: 12.6%
--
Compound: COC(=O)Cc1ccc(NC(=S)NCc2ccccc2)cc1
System tested: human ether-à-go-go-related gene (hERG) potassium channel (human, UniProt Q12809)
Recorded value: 0.941%
--
Compound: Brc1ccc2c(c1)OCCOCCOCCOCCOCCOCCO2
System tested: human ether-à-go-go-related gene (hERG) potassium channel (human, UniProt Q12809)
Recorded value: -70.8%
--
Compound: COC(=O)Cc1ccc(NC(=S)NCc2ccc(OC)cc2)cc1
System tested: human ether-à-go-go-related gene (hERG) potassium channel (human, UniProt Q12809)
Recorded value: -18.2%
--
Compound: Cn1c(N2CCC(C(N)=O)CC2)nc2c1c(=O)n(Cc1ccc(Cl)cc1)c(=O)n2C
System tested: human ether-à-go-go-related gene (hERG) potassium channel (human, UniProt Q12809)
Recorded value: -58.5%
--
Compound: S=C(Nc1ccc(Br)cc1)Nc1ccc2c(c1)OCCO2
System tested: human ether-à-go-go-related gene (hERG) potassium channel (human, UniProt Q12809)
Recorded value: 20.5%
--
Compound: CCCCCCn1c(N2CCCC2)nc2c1c(=O)n(C)c(=O)n2C
System tested: human ether-à-go-go-related gene (hERG) potassium channel (human, UniProt Q12809)
Recorded value: -1.96%
--
Compound: Cl.Nc1ccc2c(c1)OCCOCCOCCOCCOCCO2
System tested: human ether-à-go-go-related gene (hERG) potassium channel (human, UniProt Q12809)
Recorded value: -33.5%
--
Compound: Cc1csc2nc(COC(=O)c3ccc(Cl)c([N+](=O)[O-])c3)cc(=O)n12
System tested: human ether-à-go-go-related gene (hERG) potassium channel (human, UniProt Q12809)
Recorded value: -63.1%
--
Compound: COc1ccc(N2CCN(C(=O)COC(=O)CCOc3ccc(C)cc3)CC2)cc1
System tested: human ether-à-go-go-related gene (hERG) potassium channel (human, UniProt Q12809)
Recorded value: 9.09%
--
Compound: Cc1cc(C)n2cc(CSc3ccccn3)nc2n1
System tested: human ether-à-go-go-related gene (hERG) potassium channel (human, UniProt Q12809)
Recorded value: 13.6%
--
Compound: CC(=O)Nc1cc2c(cc1Br)OCCO2
System tested: human ether-à-go-go-related gene (hERG) potassium channel (human, UniProt Q12809)
Recorded value: 21.5%
--
Compound: O=C(CSc1nnnn1-c1cccnc1)NCc1cccs1
System tested: human ether-à-go-go-related gene (hERG) potassium channel (human, UniProt Q12809);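 note: peak tail current of the secondary pulse compared with the same well before compound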
Recorded value: 9.62%
--
Compound: O=C1CS/C(=N\N=C\c2ccccc2Cl)N1CC1CC1
System tested: human ether-à-go-go-related gene (hERG) potassium channel (human, UniProt Q12809);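 note: peak tail current of the secondary pulse compared with the same well before compound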
Recorded value: 12.3%
--
Compound: CC(=O)c1ccc(NC(=O)C(C)OC(=O)c2ccc(NS(=O)(=O)c3ccc(F)c(F)c3)cc2)cc1 (stereo not drawn)
System tested: human ether-à-go-go-related gene (hERG) potassium channel (human, UniProt Q12809);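 note: peak tail current of the secondary pulse compared with the same well before compound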
Recorded value: -6.98%
--
Compound: Cc1csc2nc(CSc3ccc(Cl)cc3)cn12
System tested: human ether-à-go-go-related gene (hERG) potassium channel (human, UniProt Q12809);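 note: peak tail current of the secondary pulse compared with the same well before compound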
Recorded value: -27.3%
